target: Amyloid-beta precursor protein (Homo sapiens); assay: Inhibition of amyloid beta (unknown origin) aggregation at 10 uM incubated for 5 mins by thioflavin fluorescent based analysis relative to control
measurement-label: inhibition (%)
Please respond with the number in % and leave the unit unwritten.

Enquiry: Consider the molecule shown here: O=C(CC1c2ccccc2-c2ccccc21)NCC(O)CNC1CCCCC1 (racemic) What is its recorded inhibition?
Return: 4.6

Enquiry: Consider the molecule shown here: O=C(CC1c2ccccc2-c2ccccc21)NCC(O)CNCC1CCCC1 (racemic) What is its recorded inhibition?
Return: 4.6

Enquiry: Consider the molecule shown here: O=C(NCC(O)CNC1CCCCC1)C1c2ccccc2-c2ccccc21 (racemic) What is its recorded inhibition?
Return: 4.6

Enquiry: Consider the molecule shown here: O=C(NCC(O)CNCCC1CCCCC1)C1c2ccccc2-c2ccccc21 (racemic) What is its recorded inhibition?
Return: 60.7

Enquiry: Consider the molecule shown here: O=C(CC1c2ccccc2-c2ccccc21)NCC(O)CNCc1ccccc1 (racemic) What is its recorded inhibition?
Return: 4.6

----------
experiment: Lipophilicity, logP of compound; type: physicochemical; details: octanol/water
measurement-label: logP

Enquiry: Consider the compound shown here: CC(C)(C)c1cccc(CNCC(O)CNCCC(c2ccccc2)c2ccccc2)c1 (stereo unspecified) What is its recorded logP?
Return: 5.96

----------
experiment: Lipophilicity, logD of compound at pH 7.4; format: physicochemical; details: buffer
Answer each item with its documented logD.
A bare number is all that is needed in reply.

Enquiry: Consider the molecule shown here: O=C(CC1c2ccccc2-c2ccccc21)NCC(O)CNCc1ccccc1 (racemic) What is its recorded logD?
Return: 1.88

Enquiry: Consider the molecule shown here: O=C(NCC(O)CNCCC1CCCCC1)C1c2ccccc2-c2ccccc21 (racemic) What is its recorded logD?
Return: 1.41

Enquiry: Consider the molecule shown here: O=C(NCC(O)CNCC1CC1)C1c2ccccc2-c2ccccc21 (racemic) What is its recorded logD?
Return: -0.29

Enquiry: Consider the molecule shown here: O=C(CC1c2ccccc2-c2ccccc21)NCC(O)CNCC1CC1 (racemic) What is its recorded logD?
Return: -0.1

Enquiry: Consider the molecule shown here: O=C(NCC(O)CNCC1CCCC1)C1c2ccccc2-c2ccccc21 (racemic) What is its recorded logD?
Return: 0.47

Enquiry: Consider the molecule shown here: O=C(CC1c2ccccc2-c2ccccc21)NCC(O)CNCC1CCCCC1 (racemic) What is its recorded logD?
Return: 1.1

Enquiry: Consider the molecule shown here: CC(C)(C)c1cccc(CNCC(O)CNCCC(c2ccccc2)c2ccccc2)c1 (configuration not stated) What is its recorded logD?
Return: 3.7

Source: ChEMBL document CHEMBL5380880
